Measured melting point, listed per entry.

As a guide, the following entries are already answered.
CC1CCN(c2cc(C(C)(C)C)no2)C1=O (centres undefined)    73 to 75 °C
Cc1cc(-n2cccn2)c2cccc(OCc3c(Cl)ccc(S(=O)(=O)N4CCC[C@H]4C(=O)O)c3Cl)c2n1    148 °C

What measured melting point goes with CCn1cc(C(=O)C(=O)O)c2ccc(-c3ccc(OC(F)(F)F)cc3)cc21 ?
204 to 205 °C

What measured melting point goes with Cc1ccnc2c(N)cc3c(c12)OCO3 ?
118 to 120 °C

What measured melting point goes with O=C(O)CCCCCCCCCCCCCCCCCCCCCN1C(=O)C=CC1=O ?
106 °C

What measured melting point goes with CC(C)(CO)NS(=O)(=O)c1cccc(NC(=O)c2cnn3c(C(F)(F)F)cc(-c4ccc(Cl)cc4)nc23)c1 ?
271 °C

What measured melting point goes with COC(=O)c1c(-c2ccc(C)cc2)ccc2ccccc12 ?
109 to 111 °C

What measured melting point goes with Cc1nc(-c2ccccc2)cc(-c2cccc([N+](=O)[O-])c2)c1C(=O)NCCN(C)C ?
143 to 145 °C

What measured melting point goes with Cn1ncc2c(=O)n3c(nc21)SC(C(=O)O)C3 (centres undefined) ?
274 to 276 °C

What measured melting point goes with O=C(OC(c1ccccc1)c1ccccc1)c1c(-c2ccccc2)oc2c(CCl)cccc2c1=O ?
186 °C

What measured melting point goes with Cc1cc2cc(CN3CCCC3)cnc2cc1NC(=O)c1ccc(-c2ccc(F)cc2)c(F)c1 ?
163 to 166 °C

What measured melting point goes with COc1ccc(-c2cc3ccccc3o2)cc1 ?
145 to 147 °C

What measured melting point goes with Cc1ccc(-c2nn(-c3ccccc3C)c(N)c2C(N)=O)cc1 ?
133 to 135 °C

What measured melting point goes with CCCc1cc(-c2noc3cc(OC)ccc23)ccc1OC ?
70 to 72 °C
